Measured growth by item
- Tested on: PC-3 prostate
- assayNotes: NCI-60 one-dose screen, 48 h (100 = growth as untreated, 0 = no growth, -100 = all killed)
- runConditions: 10 µM
The panel holds about 83,000 compounds, 20% with a hit somewhere; the sample as a whole holds those more often.
measure: growth (%)

O=C(CCC(C(=O)c1ccccc1)c1ccccc1)c1ccccc1 (centres undefined): 55.5
CC(=O)/C(=C/c1ccc(Br)cc1)C(=O)c1ccccc1: 80.6
CCCCCC(=O)O[C@]1(C(C)=O)CCC2C3CCC4=CC(=O)CC[C@]4(C)C3CC[C@@]21C (some centres undefined): 6.12
C#C[C@]1(O)CCC2C3CCc4cc(OC5CCCC5)ccc4C3CC[C@@]21C (some centres undefined): 57.9
COc1cc(-c2ccc(N=Nc3ccc4c(S(=O)(=O)O)ccc(N)c4c3O)c(OC)c2)ccc1N=Nc1ccc2c(S(=O)(=O)O)ccc(N)c2c1O: 98.7
Nc1c(Br)cc(Br)c2c1[nH]c(=O)c1ccccc12: 80.3
CN(C)CCCOc1ccc(NC2=C(Cl)C(=O)C(Nc3ccc(OCCCN(C)C)cc3)=C(Cl)C2=O)cc1: -7.37
COc1cc(/C=C/c2cc(/C=C/c3ccc(O)c(OC)c3)n(C(=O)Nc3ccccc3Cl)n2)ccc1O: 6.54
COc1ccc(-c2nn(-c3cccc(Cl)c3)cc2C=C(C#N)C#N)cc1: 12.6
COc1cc(-c2nn(-c3cccc(NC(=O)NCCNS(=O)(=O)c4ccc(Cl)cc4)c3)cc2-c2ccncc2)ccc1Cl: 7.5
O=C1C=C(Nc2cccc(Br)c2)c2ccccc2C1=O: 37.4
C/C(=C/CCC(C)[C@@H]1CC[C@]2(C)C3=C(CC[C@@]12C)[C@@]1(C)CCC(=O)C(C)(C)[C@@H]1CC3)C(=O)O (some centres undefined): -29.8
O=C(N/N=C/c1ccc(Cl)cc1)c1ccccc1Nc1cccc(C(F)(F)F)c1: 71.6
Oc1cccc(-c2nc3sccn3c2-c2ccncn2)c1: 84.6
